Origin of measurements: patent US9586907B2

- Test system: M. tuberculosis W
- experiment-notes: MIC, M. tuberculosis W
- Format: cell-based
In this section, each of the compounds is paired with its reported MIC.
readout-name: MIC (µg/mL)

{"columns": ["compound-structure", "target-of-assay", "reported-result"],
 "data": [
  ["OCCCCCCCCN=C=S", "M. tuberculosis W", 1],
  ["S=C=NCCCCCCN=C=S", "M. tuberculosis W", 0.5],
  ["S=C=NCCCCCCCN=C=S", "M. tuberculosis W", 2],
  ["S=C=NCCCCCCCCN=C=S", "M. tuberculosis W", 4]
]}

----------
In this section, each of the compounds is paired with its reported MIC.
- Test system: M. avium
- experiment-notes: MIC, M. avium
- Format: cell-based
- assay-conditions: M. avium

{"columns": ["compound-structure", "target-of-assay", "MIC"],
 "data": [
  ["OCCCCCCCCN=C=S", "M. avium", "4 µg/mL"],
  ["S=C=NCCCCCCCCN=C=S", "M. avium", "32 µg/mL"],
  ["S=C=NCCCCCCN=C=S", "M. avium", "32 µg/mL"],
  ["S=C=NCCCCCCCN=C=S", "M. avium", "32 µg/mL"]
]}

----------
- System: M. bovis BCG
- experiment-notes: microbe, parasite or virus in culture
- Assay type: cell-based

{"columns": ["compound-structure", "MIC [µg/mL]"],
 "data": [
  ["OCCCCCCCCN=C=S", 0.5],
  ["S=C=NCCCCCCCN=C=S", 2],
  ["S=C=NCCCCCCCCN=C=S", 4],
  ["S=C=NCCCCCCN=C=S", 2]
]}

----------
Below are compounds with their MIC as measured on Cryptococcus neoformans CNH99.

{"columns": ["compound", "censor-symbol", "MIC / µg/mL"],
 "data": [
  ["S=C=NCc1cccnc1", "=", 1],
  ["COc1ccc(CN=C=S)cc1 [Compound 2, reference compound]", "<", 1],
  ["S=C=NCc1ccc(CN=C=S)cc1", "<", 1],
  ["OC(Cn1cncn1)(Cn1cncn1)c1ccc(F)cc1F [Fluc, Fluconazol, reference compound]", "=", 4],
  ["S=C=NCc1ccc2ccc3cccc4ccc1c2c34", "=", 4]
]}

----------
- Tested on: M. tuberculosis H37Rv
- experiment-notes: MIC, M. tuberculosis H37Rv
- Format: cell-based

{"columns": ["compound-structure", "target-of-assay", "MIC / µg/mL"],
 "data": [
  ["OCCCCCCCCN=C=S", "M. tuberculosis H37Rv", 1],
  ["S=C=NCCCCCCCCN=C=S", "M. tuberculosis H37Rv", 4],
  ["S=C=NCCCCCCN=C=S", "M. tuberculosis H37Rv", 2],
  ["S=C=NCCCCCCCN=C=S", "M. tuberculosis H37Rv", 2]
]}

----------
In this section, each of the compounds is paired with its reported P24 values.
- Test system: virus (92TH594)
- experiment-notes: Viral proliferation in PBMC, p24 viral antigen
- Assay type: cell-based
- assay-conditions: compound 10 μg/ml, added to the cells after viral infection; PBMC
readout-name: P24 values (pg/mL)

{"columns": ["compound-structure", "readout-name", "reported-result"],
 "data": [
  ["OCCCCCCCCN=C=S", "P24 values", 7],
  ["S=C=NCc1cccnc1", "P24 values", 155],
  ["S=C=NCc1ccc(CN=C=S)cc1", "P24 values", 340],
  ["S=C=NCCCCCCCCN=C=S", "P24 values", 700]
]}

----------
Below are compounds with their MIC as measured on Aspergillus fumigatus Rit 21.
readout-name: MIC (µg/mL)

{"columns": ["compound", "censor-symbol", "reported-result"],
 "data": [
  ["OC(Cn1cncn1)(Cn1cncn1)c1ccc(F)cc1F [Fluc, Fluconazol, reference compound]", ">", 64],
  ["S=C=NCc1ccc2ccc3cccc4ccc1c2c34", ">", 64],
  ["S=C=NCc1ccc(CN=C=S)cc1", "=", 0.5],
  ["COc1ccc(CN=C=S)cc1 [Compound 2, reference compound]", "=", 8],
  ["S=C=NCc1cccnc1", "=", 4]
]}

----------
- experiment-notes: In vivo tolerance in mice
- assay-conditions: highest dose, 50 mg/kg
readout-name: toxicity in treated mice

{"columns": ["compound-structure", "readout-name", "reported-result"],
 "data": [
  ["S=C=NCCCCCCCCN=C=S", "toxicity in treated mice", "no toxicity was observed"],
  ["S=C=NCc1cccnc1", "toxicity in treated mice", "no toxicity was observed"],
  ["S=C=NCc1ccc(CN=C=S)cc1", "toxicity in treated mice", "no toxicity was observed"],
  ["OCCCCCCCCN=C=S", "toxicity in treated mice", "no toxicity was observed"]
]}

----------
- Test system: M. tuberculosis CDC1551
- experiment-notes: MIC, M. tuberculosis CDC1551
- Assay type: cell-based
- assay-conditions: Mycobacterium tuberculosis, read-out: MIC
In this section, each of the compounds is paired with its reported MIC.

{"columns": ["compound", "MIC [µg/mL]"],
 "data": [
  ["COc1ccc(CN=C=S)cc1 [Compound 2, reference compound]", 32],
  ["S=C=NCc1cccnc1", 16],
  ["CO[C@H]1/C=C/O[C@@]2(C)Oc3c(C)c(O)c4c(O)c(c(/C=N/N5CCN(C)CC5)c(O)c4c3C2=O)NC(=O)/C(C)=C\\C=C\\[C@H](C)[C@H](O)[C@@H](C)[C@@H](O)[C@@H](C)[C@H](OC(C)=O)[C@@H]1C [Rif, Rifampicin, reference compound]", 0.5],
  ["S=C=NCc1ccc(CN=C=S)cc1", 4]
]}

----------
In this section, each of the compounds is paired with its reported MIC.
- Test system: M. tuberculosis P
- experiment-notes: MIC, M. tuberculosis P
- Type: cell-based
- Description: Next, several of the bifunctional ITC compounds were tested for their ability to inhibit the growth of some clinical isolates of Mycobacteria, the results of which are summarized in Table 3 below.
readout-name: MIC (µg/mL)

{"columns": ["compound-structure", "readout-name", "reported-result"],
 "data": [
  ["S=C=NCCCCCCN=C=S", "MIC", 2],
  ["OCCCCCCCCN=C=S", "MIC", 2],
  ["S=C=NCCCCCCCN=C=S", "MIC", 4],
  ["S=C=NCCCCCCCCN=C=S", "MIC", 4]
]}

----------
- Tested on: M. tuberculosis W
- experiment-notes: MIC, M. tuberculosis W
- Format: cell-based
- assay-conditions: Mycobacterium tuberculosis, read-out: MIC
In this section, each of the compounds is paired with its reported MIC.
readout-name: MIC (µg/mL)

{"columns": ["compound", "readout-name", "censor-symbol", "reported-result"],
 "data": [
  ["CO[C@H]1/C=C/O[C@@]2(C)Oc3c(C)c(O)c4c(O)c(c(/C=N/N5CCN(C)CC5)c(O)c4c3C2=O)NC(=O)/C(C)=C\\C=C\\[C@H](C)[C@H](O)[C@@H](C)[C@@H](O)[C@@H](C)[C@H](OC(C)=O)[C@@H]1C [Rif, Rifampicin, reference compound]", "MIC", ">", 4],
  ["S=C=NCc1cccnc1", "MIC", "=", 4],
  ["COc1ccc(CN=C=S)cc1 [Compound 2, reference compound]", "MIC", "=", 8],
  ["S=C=NCc1ccc(CN=C=S)cc1", "MIC", "=", 1]
]}
